Origin of the recorded values: PubChem BioAssay AID624125

biological target: Muscarinic acetylcholine receptor M4 (Homo sapiens) (UniProt P08173); experiment: human M4 muscarinic receptor antagonists, primary screen, CHO cells, Fluo-8 calcium fluorescence (AID 624125); settings: CHO-hM4 cells, ACh EC80, Fluo-8 calcium fluorescence; at 3 µM;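 also: 0% = acetylcholine EC80 with DMSO and 100% = DMSO without agonist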
Sequence (P08173 whole entry, looked up): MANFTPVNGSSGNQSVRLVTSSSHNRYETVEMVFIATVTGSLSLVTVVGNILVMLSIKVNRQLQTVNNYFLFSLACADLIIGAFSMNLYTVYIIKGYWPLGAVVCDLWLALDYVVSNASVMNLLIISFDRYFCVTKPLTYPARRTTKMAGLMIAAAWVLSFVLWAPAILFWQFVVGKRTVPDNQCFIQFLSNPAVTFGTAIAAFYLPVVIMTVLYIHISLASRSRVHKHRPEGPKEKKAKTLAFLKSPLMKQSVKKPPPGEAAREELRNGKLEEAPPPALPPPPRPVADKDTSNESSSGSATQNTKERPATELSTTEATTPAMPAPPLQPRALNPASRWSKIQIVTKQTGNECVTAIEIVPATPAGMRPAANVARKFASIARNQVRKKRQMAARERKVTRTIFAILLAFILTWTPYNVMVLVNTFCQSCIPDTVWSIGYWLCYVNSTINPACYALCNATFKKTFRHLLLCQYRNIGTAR
The campaign covered roughly 360,000 compounds. About 2,600 (0.72%) were called active.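 The calls were made as follows: active = inhibition above its plate's cutoff, the mean inhibition of sample wells plus 3 SD (cut at about 27% in these data); inactive = the rest.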 The full list was thinned out, with actives kept by preference.
Outcomes: 1 (active), 0 (inactive)

>>> df
                                   molecule  categorylabel
0     O=C1C=C(c2ccc(Cl)cc2)C(=O)N1Nc1ccccc1              1
1  O=C(OCc1nnc(-c2ccccc2)o1)c1ccc2c(c1)C(=O)N(CCc1ccccc1)C2=O              0
2  COc1ccc(CC(=O)Nc2c3c(nn2-c2cccc(Cl)c2)CS(=O)C3)cc1 (centres undefined)              0
3  C=CC[C@@H](CC(=O)N[C@@H](CO)Cc1ccccc1)C(=O)NCCOC(=O)[C@@H](CC=C)CC(=O)OC(C)(C)C              0
4  O=C(NCCc1ccccc1)c1ccc2c(c1)N(Cc1ccccc1)CCS2              1
5  O=C(C1CCCO1)N1CCN(C(=S)Nc2cccc(Cl)c2)CC1 (centres undefined)              0
6  O=C(C[C@H]1C/C=C\C[C@@H](NC(=O)OCC2c3ccccc3-c3ccccc32)C(=O)O[C@@H](c2ccccc2)CNC1=O)N[C@H](CO)Cc1ccccc1              0
7  CCOC(=O)N1CCN(C(=O)c2ccc3c(c2)N(Cc2ccc(C)cc2)CCS3)CC1              0
8  O=C1CCc2cc(S(=O)(=O)Nc3ccc(C(F)(F)F)cc3)cc3c2N1CC3              0
